- TEST: Plasma pharmacokinetics, healthy subjects
- Assay type: in vivo, human
- APPLIED_CONDITIONS: human; plasma prodrug; healthy subjects; 50 mg oral dose; median; read-out: Tmax
- Protocol: Ten healthy subjects were evaluated in 5 study sessions, each separated by approximately 2 weeks. At each study session, subjects received either an oral dose of remogliflozin etabonate or placebo after an overnight fast. […] The available safety and PK results from each dosing period were evaluated before proceeding to the next dose level. […] Ratios of AUC(0–∞) remogliflozin to AUC(0–last) remogliflozin etabonate were calculated including molecular weight corrections. […]
EXPERIMENTAL_ENDPOINT: Tmax (min)
Your answer should be a plain number; it is taken to be in min.

Prompt: I'd like to know its Tmax. The compound in question is CCOC(=O)OC[C@H]1O[C@@H](Oc2nn(C(C)C)c(C)c2Cc2ccc(OC(C)C)cc2)[C@H](O)[C@@H](O)[C@@H]1O [Remogliflozin etabonate, remogliflozin etabonate]
Completion: 37.5
